- tgt: Recombinant human MALT-1 (amino acids 340-824) (Homo sapiens (Human), UniProt Q9UDY8)
- Sequence (Q9UDY8 340-824): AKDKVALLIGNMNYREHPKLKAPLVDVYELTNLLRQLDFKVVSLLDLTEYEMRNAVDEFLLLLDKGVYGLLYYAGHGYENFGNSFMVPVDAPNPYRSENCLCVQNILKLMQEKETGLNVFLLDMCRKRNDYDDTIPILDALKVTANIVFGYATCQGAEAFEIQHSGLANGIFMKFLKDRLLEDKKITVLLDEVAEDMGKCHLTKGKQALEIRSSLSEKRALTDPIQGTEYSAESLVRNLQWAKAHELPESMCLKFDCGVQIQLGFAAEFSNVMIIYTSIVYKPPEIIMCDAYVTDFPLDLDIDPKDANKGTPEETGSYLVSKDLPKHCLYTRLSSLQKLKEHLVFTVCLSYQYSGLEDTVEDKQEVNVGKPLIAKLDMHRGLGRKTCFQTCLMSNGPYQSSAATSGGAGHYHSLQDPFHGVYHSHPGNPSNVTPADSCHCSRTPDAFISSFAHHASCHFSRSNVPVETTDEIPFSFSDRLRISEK
- test: MALT-1 inhibition assay (fluorogenic substrate Ac-LRSR-Rh110-DP)
- condition: recombinant human MALT-1, substrate Ac-LRSR-Rh110-DP
pIC50: −log10 of the molar value.
measured-parameter: pIC50

Please review the following examples before continuing.
>>> observed("C[C@H]1CCc2c(cnc3cc(Cl)nn23)N1c1ccc([C@H](N(C)C(=O)[C@H]2CC[S@@](=N)(=O)CC2)C(F)(F)F)cc1 (relative stereo)")
6.42
>>> observed("CN1C[C@@H](C(=O)N(C)[C@@H](c2ccc(N3CCCc4c3cnc3cc(Cl)nn43)cc2)C(F)(F)F)CC1=O (relative stereo)")
6.92
>>> observed("C[C@@H]1CCN(c2ccc([C@H](N(C)C(=O)[C@H]3CCC(=O)NC3)C(F)(F)F)cc2)c2cnc3cc(Cl)nn3c21 (relative stereo)")
7.43
>>> observed("COc1ccc2ncc(Nc3ccc([C@H](N(C)C(=O)C4CCN(C(C)=O)CC4)C(F)(F)F)cc3)c([C@@H]3CCOC3)c2n1")
7.11
>>> observed("CN(C(=O)[C@H]1CC[S@](=N)(=O)CC1)[C@@H](c1ccc(N2CCC(C)(C)c3c2cnc2cc(F)nn32)cc1)C(F)(F)F (relative stereo)")
7.20

A = COc1ccc2ncc(Nc3ccc([C@H](N(C)C(=O)[C@@H]4CCN(C(=O)CO)C4)C(F)(F)F)cc3)c([C@H](C)OC)c2n1 (relative stereo)
B = Cc1ncc(C(=O)N(C)[C@@H](c2ccc(N3CCCc4c3cnc3cc(Cl)nn43)cc2)C(F)(F)F)s1
Q) Between A and B , whose recorded pIC50 is greater? Give the label under which the chosen entry appears.
A) A
(A: 7.28, B: 6.71)

a = COC(=O)N(C)[C@@H](c1ccc(N2CCCc3c2cnc2cc(Cl)nn32)cc1)C(F)(F)F
b = COC[C@]1(C)CCN(c2ccc([C@H](N(C)C(=O)[C@H]3CC[S@@+]([O-])CC3)C(F)(F)F)cc2)c2cnc3cc(Cl)nn3c21 (relative stereo)
Q) Identify the entry with the smaller pIC50: a or b . Give the label under which the chosen entry appears.
A) a
(a: 6.47, b: 6.97)

A = CN([C@@H](c1ccc(N2CCCc3c2cnc2cc(Cl)nn32)cc1)C(F)(F)F)[S+]([O-])C(C)(C)C (stereo partly shown)
B = CN1C[C@H](C(=O)N(C)[C@@H](c2ccc(N3CCCc4c3cnc3cc(Cl)nn43)cc2)C(F)(F)F)CCC1=O (relative stereo)
Q) Identify the entry with the smaller pIC50: A or B . Give the label under which the chosen entry appears.
A) A
(A: 6.52, B: 6.99)

A = C[C@@H]1CCN(c2ccc([C@H](N(C)C(=O)[C@H]3CNC(=O)C3)C(F)(F)F)cc2)c2cnc3cc(Cl)nn3c21
B = COc1ccc2ncc(Nc3ccc([C@@H](N(C)C(=O)[C@H]4CC[S@@](=N)(=O)CC4)C(F)(F)F)cc3)c([C@@H](C)OC)c2n1 (stereo in doubt)
Q) Between A and B , whose recorded pIC50 is greater? Give the label under which the chosen entry appears.
A) A
